- target or test system: T1, Recombinant protein comprising the whole extracellular part of human ErbB1 (human, UniProt P00533 25-645)
- T1 construct: extracellular domain; also called EGF receptor; EGFR
- procedure summary: SPR (BIAcore 2000), peptide dendrimer immobilized, receptor ECD injected; mean ± SEM, SEM 4.9e-9 in r8c2
Where no end group is shown, it is not given here.
assay readout: pKd
Reminder that pKd means the negative base-10 logarithm of the concentration expressed in mol/L.

In plain terms, MLYNPTTYQMDVNPEGK (also: tetrameric dendrimer: four monomers coupled to a lysine backbone, It was immobilized on a CM5 chip by amine coupling; also called 1DL) [Inherbin1 peptide, tetrameric dendrimer] has a documented pKd of 7.87

Origin of values: patent US20090092617A1
